- Assayed System: Myc proto-oncogene protein (Homo sapiens) (UniProt P01106)
- Sequence (P01106 whole entry, looked up): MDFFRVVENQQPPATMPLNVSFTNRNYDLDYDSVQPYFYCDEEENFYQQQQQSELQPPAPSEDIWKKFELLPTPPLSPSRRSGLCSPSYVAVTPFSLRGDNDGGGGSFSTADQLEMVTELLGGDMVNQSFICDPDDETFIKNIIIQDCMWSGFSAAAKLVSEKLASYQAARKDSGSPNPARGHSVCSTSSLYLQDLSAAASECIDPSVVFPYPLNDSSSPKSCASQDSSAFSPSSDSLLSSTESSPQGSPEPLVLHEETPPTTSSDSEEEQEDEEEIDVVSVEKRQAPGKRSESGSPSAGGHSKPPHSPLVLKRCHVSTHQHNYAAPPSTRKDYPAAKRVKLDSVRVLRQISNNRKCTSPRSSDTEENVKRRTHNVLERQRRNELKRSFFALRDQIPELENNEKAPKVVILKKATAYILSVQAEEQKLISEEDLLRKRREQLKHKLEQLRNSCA
- Assay Procedure: ATG_Myc_CIS: Attagene CIS-FACTORIAL HepG2 Assay for human Myelocytomatosis (Myc) Proto-Oncogene Transcription Factor (AID 2282990)
- Condition Label: HepG2, Attagene cis-reporter transcription factor activity; actives raise or lower the signal
Calls of active or inactive are those of the source. The calls were made as follows: active = hit-call score of the fitted dose curve at least 0.9, where 1 is the maximum; inactive = score below 0.9.
Outcomes: label 1 = active, label 0 = inactive

Compound	Class Name
CC1CCCC1.[C-]#[O+].[C-]#[O+].[C-]#[O+].[Mn]	label 0
O=S(=O)(O)OOS(=O)(=O)O	label 0
C[C@]12CCC(=O)C(O)=C1CC[C@@H]1[C@@H]2CC[C@]2(C)C(=O)CC[C@@H]12	label 0
[CH3][Sn]([Cl])([Cl])[Cl]	label 0
O=C1Nc2ccc(Cl)cc2C(c2ccccc2)=NC1O (stereo not given)	label 0
Cc1ncc(C[n+]2csc(CCO)c2C)c(N)n1	label 0
Cc1ccc(N(SC(F)(Cl)Cl)S(=O)(=O)N(C)C)cc1	label 1
O=[N+]([O-])c1cc(C(F)(F)F)c(Cl)c([N+](=O)[O-])c1Cl	label 0
CN(N=O)c1ccccc1	label 0
C=COCCCl	label 0
COc1cc(OC)nc(Oc2cccc(Oc3nc(OC)cc(OC)n3)c2C(=O)O)n1	label 0
O=P1(NCCCl)OCCCN1CCCl (stereo not given)	label 0
O=[N+]([O-])O	label 0
Oc1ccc(Cl)cc1	label 0
O=C=Nc1ccccc1	label 0
CC[N+](=O)[O-]	label 0
CCNCC	label 0
CCC(C)c1cc(C(C)(C)C)cc(-n2nc3ccccc3n2)c1O (stereo not given)	label 0
O=[N+]([O-])c1ccc(Cl)cc1	label 0
O=C1C=CC(=O)C=C1	label 0

====

- Assayed System: Transcription factor Sp1 (Homo sapiens) (UniProt P08047)
- Sequence (P08047 whole entry, looked up): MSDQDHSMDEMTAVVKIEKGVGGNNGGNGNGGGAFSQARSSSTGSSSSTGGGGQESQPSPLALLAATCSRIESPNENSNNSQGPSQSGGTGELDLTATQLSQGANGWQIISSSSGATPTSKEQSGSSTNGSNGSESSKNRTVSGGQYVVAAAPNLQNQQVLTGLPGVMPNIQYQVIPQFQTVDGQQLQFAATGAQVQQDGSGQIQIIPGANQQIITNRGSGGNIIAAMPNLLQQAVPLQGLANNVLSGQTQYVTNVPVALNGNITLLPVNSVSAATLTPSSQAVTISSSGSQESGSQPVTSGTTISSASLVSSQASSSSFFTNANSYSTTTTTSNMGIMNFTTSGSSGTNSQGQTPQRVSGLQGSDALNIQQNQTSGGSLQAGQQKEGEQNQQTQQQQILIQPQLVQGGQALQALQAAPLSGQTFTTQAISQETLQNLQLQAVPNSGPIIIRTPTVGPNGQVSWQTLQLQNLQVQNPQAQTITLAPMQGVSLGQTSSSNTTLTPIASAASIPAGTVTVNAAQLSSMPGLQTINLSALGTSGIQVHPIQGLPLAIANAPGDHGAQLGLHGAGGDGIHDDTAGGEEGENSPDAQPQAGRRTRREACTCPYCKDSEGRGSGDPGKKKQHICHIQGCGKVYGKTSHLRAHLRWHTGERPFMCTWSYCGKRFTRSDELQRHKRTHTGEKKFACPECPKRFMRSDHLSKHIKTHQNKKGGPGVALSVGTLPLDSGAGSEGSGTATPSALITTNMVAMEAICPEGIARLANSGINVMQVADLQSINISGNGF
- Assay Procedure: ATG_Sp1_CIS: Attagene CIS-FACTORIAL HepG2 Assay for human Specificity Protein 1 (Sp1) (AID 2282961)
- Condition Label: HepG2 Sp1 cis-reporter transcription, actives raise or lower the signal
Calls of active or inactive are those of the source. How the source made its calls: active means hit-call score of the fitted dose curve at least 0.9, where 1 is the maximum; inactive means score below 0.9.
Outcomes: active, inactive

Molecule	Assayed System	Class Name
C=CC(=O)OCCO	Transcription factor Sp1 (Homo sapiens) (UniProt P08047)	active
CC(C)(O)C#N	Transcription factor Sp1 (Homo sapiens) (UniProt P08047)	inactive
Cc1ncc(C[n+]2csc(CCO)c2C)c(N)n1	Transcription factor Sp1 (Homo sapiens) (UniProt P08047)	inactive
C=CC(=O)OCC(CC)CCCC (stereo not drawn)	Transcription factor Sp1 (Homo sapiens) (UniProt P08047)	inactive
CN(C)C(=O)C(c1ccccc1)c1ccccc1	Transcription factor Sp1 (Homo sapiens) (UniProt P08047)	inactive
c1cc(OCC2CO2)ccc1Cc1ccc(OCC2CO2)cc1 (stereo not drawn)	Transcription factor Sp1 (Homo sapiens) (UniProt P08047)	active
O=C(CCl)c1ccccc1	Transcription factor Sp1 (Homo sapiens) (UniProt P08047)	inactive
C[N+](C)(C)CC(=O)O	Transcription factor Sp1 (Homo sapiens) (UniProt P08047)	inactive
CN(N=O)c1ccccc1	Transcription factor Sp1 (Homo sapiens) (UniProt P08047)	inactive
Clc1ccc(-c2ccccc2)cc1	Transcription factor Sp1 (Homo sapiens) (UniProt P08047)	active
CC(=O)/C=C/c1ccccc1	Transcription factor Sp1 (Homo sapiens) (UniProt P08047)	inactive
c1ccc2c(c1)CCCC2	Transcription factor Sp1 (Homo sapiens) (UniProt P08047)	inactive
NNc1ccccc1	Transcription factor Sp1 (Homo sapiens) (UniProt P08047)	inactive
